system: SN12C renal; assay: NCI-60 one-dose screen, 48 h; settings: 10 µM unless noted
Compounds without any hit were thinned out: in the full panel of roughly 83,000, 20% have a hit. Calls of active or inactive are those of the source. How the source made its calls: active means growth percent below 10; inactive means the rest.
Can you answer with just one of these options? active, inactive

Some solved cases for reference:
compound: C=C[C@@H]1C[C@H](O)Cc2cc(F)ccc2N1
assigned.class: inactive
--
compound: Cc1ccc(S(=O)(=O)NCCCNc2cc(-c3cn(C(C)(C)C)nc3-c3cccc(O)c3)ccn2)cc1
assigned.class: inactive
--
compound: COC(=O)C(Sc1ccc(Cl)cc1)C1SC(=S)N(Cc2ccccc2)C1=O (centres undefined)
assigned.class: inactive
--
compound: CC1(C)C(=O)/C(=C\c2ccc(C(F)(F)F)cc2)C[C@]2(C)[C@H]3CC[C@@H]4[C@H]5[C@H](C(=O)/C=C/c6ccc(C(F)(F)F)cc6)CC[C@]5(CO)CC[C@@]4(C)[C@]3(C)CC[C@@H]12
assigned.class: inactive
--
compound: Nc1nnc(-c2ccc3ccccc3c2O)o1
assigned.class: inactive
--
compound: N#Cc1ccc(N2Cc3ccccc3OC3=C2C(=O)c2c(O)ccc(O)c2C3=O)cc1
assigned.class: active

I'd appreciate the recorded outcome for `O=c1ccn(-c2ncnc3nc[nH]c23)cc1` from this test. inactive

I'd appreciate the recorded outcome for `COc1ccc(Nc2ncccc2C(=O)NCc2cn(Cc3cccc(Oc4ccccc4)c3)nn2)cc1` from this test. inactive

I'd appreciate the recorded outcome for `C=C1C(=O)O[C@H]2[C@H]1CC/C(Cn1cc(CNC(=O)Cc3cn(C(=O)c4ccc(Cl)cc4)c4ccc(OC)cc34)nn1)=C\CC[C@@]1(C)O[C@@H]21` from this test. inactive
